Values were extracted from PubChem BioAssay (NCI).

Tested on: NCI-H522 lung
protocolSummary: NCI-60 one-dose screen, 48 h (100 = growth as untreated, 0 = no growth, -100 = all killed)
cond: 10 µM unless noted
The panel holds about 83,000 compounds, 20% with a hit somewhere; the sample as a whole holds those more often.
The label depends only on growth: 1.0 if it is at least 30%, 0.0 if it is smaller.

Reference set, count: 3
{"columns": ["substanceSmiles", "categoryLabel"],
 "data": [
  ["O=C(Nc1nc2ccc(C(=O)N3CCN(/C=C/c4ccccc4)CC3)cc2s1)c1ccc(NCCc2ccccc2)c([N+](=O)[O-])c1", 1.0],
  ["Cn1cc(-c2ccc3nc(-c4ccc(CC(=O)ONc5cc(C(C)(C)C)on5)cc4)cnc3c2)cn1", 1.0],
  ["N#Cc1c(-c2ccccc2)cc(-c2ccccc2)n(CCCC(=O)Nc2ccccc2N)c1=O", 1.0]
]}

stdin: Tell me whether growth is at least 30% here: O=C1/C(=C/c2cccc(F)c2)CN(C(=O)C(Cl)Cl)C/C1=C\c1cccc(F)c1
stdout: 0.0

stdin: API: above_or_equal(metric=growth, cutoff=30%) for item CCN(CC)CCCCCNc1cc(OC(=O)c2ccc(Cl)cc2)cc2cccnc12
stdout: 0.0
